This collection of values is drawn from patent US8859580B2.

System under test: 11β-HSD1 (Homo sapiens, UniProt P28845)
Construct: detecting cortisol generated from cortisterone by human liver microsomes; from tissue; host or cells: human liver microsomes
Sequence (P28845 whole entry): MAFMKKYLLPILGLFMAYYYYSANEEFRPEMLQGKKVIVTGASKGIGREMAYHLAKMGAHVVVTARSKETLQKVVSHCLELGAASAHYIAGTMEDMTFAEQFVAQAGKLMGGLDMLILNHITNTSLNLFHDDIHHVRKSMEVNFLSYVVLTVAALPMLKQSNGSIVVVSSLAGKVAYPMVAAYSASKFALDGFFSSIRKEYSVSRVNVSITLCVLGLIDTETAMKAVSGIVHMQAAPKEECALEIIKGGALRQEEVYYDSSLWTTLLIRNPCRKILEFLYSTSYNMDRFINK
Procedure text: In vitro inhibition of 11β-HSD1, HTRF detection of cortisol generated from cortisone by human liver microsomes
Format: biochemical
Run conditions: 11β-HSD IC50 (nM), 1 hour at 37° C., pH 6.0, NADPH 200 μM, cortisone 80 nM, inhibition relative to carbenoxolone signal
So basically, if IC50 comes in under 200 nM it's T, and if it's 200 nM or more it's F.

Please review the following examples before continuing.
Molecule	Label value
CC(=O)Nc1ccc(C(=O)N2CC[C@@]3(C)c4cccc(O)c4C[C@@H]2C3(C)C)cc1F	F
C[C@@H]1[C@H]2Cc3ccc(O)cc3[C@]1(C)CCN2C(=O)c1ccc2nc[nH]c2c1	T
Cc1cnc2cc3c(cc2n1)C[C@H]1N(C(=O)c2ccc4nc[nH]c4c2)CC[C@]3(C)C1(C)C	F
COc1cccc2c1C[C@H]1N(C(=O)c3ccc4nc[nH]c4c3)CC[C@]2(C)C1(C)C	T
C[C@H]1[C@H]2Cc3ccc(O)cc3[C@]1(C)CCN2C(=O)c1ccc2nc[nH]c2c1	T
CC[C@@H]1[C@H]2Cc3ccc(O)cc3[C@]1(CC)CCN2C(=O)c1ccc2nc[nH]c2c1 (racemic)	T
CCCNC(=O)c1ccc(C(=O)N2CC[C@@]3(C)c4cccc(O)c4C[C@@H]2C3(C)C)cc1	F

# ---- query molecule ----
# check: IC50 < 200 nM for CCCC12CCN(C(=O)c3ccc4nc[nH]c4c3)C(Cc3ccc(O)cc31)C2 (centres unmarked)
T
